Source listed as patent US6716833B2.

Subject of test: MMP-13 (Homo sapiens)
Measurement notes: MMP-13 inhibition (thiopeptide or fluorescent peptide substrate)
Format: biochemical
Test parameters: Table 11; read-out: MMP-13 IC50
Counter-ions that a name gives are not always drawn.
Measured quantity: IC50 (nM)

Example entries begin here.
{"columns": ["Molecule", "Result units", "IC50"],
 "data": [
  ["CC#CCOc1ccc(S(=O)(=O)N2C[C@H](CC(=O)O)SC(C)(C)[C@@H]2C(=O)NO)cc1", "nM", 6.7],
  ["CC#CCOc1ccc(S(=O)(=O)N2C[C@H](CC(=O)N3CCN(C)CC3)SC(C)(C)[C@@H]2C(=O)NO)cc1 [Example 283, hydrochloride]", "nM", 23]
]}

[I] CC#CCOc1ccc(S(=O)(=O)N2C=CSC(C)(C)[C@@H]2C(=O)NO)cc1
[II] CC#CCOc1ccc(S(=O)(=O)N2C[C@H](CC(=O)NCCN(C)C)SC(C)(C)[C@@H]2C(=O)NO)cc1
[III] CC#CCOc1ccc(S(=O)(=O)N2C[C@H](C)SC(C)(C)[C@@H]2C(=O)NO)cc1
[IV] CC#CCOc1ccc(S(=O)(=O)N2C[C@H](CC(=O)NO)SC(C)(C)[C@@H]2C(=O)NO)cc1
[V] CC#CCOc1ccc(S(=O)(=O)N2C[C@@H](CN)SC(C)(C)[C@@H]2C(=O)NO)cc1 [Example 275, Hydrochloride]
Descending sort on IC50 required. Please respond with the labels ordered as the question requires.
I, II, V, III, IV
(I: 271 nM, II: 76 nM, V: 16 nM, III: 8.7 nM, IV: 4.5 nM)
